Would you mind telling me the reported relative viability of each entry?
# System: NCI-H2347
# Assay method text: relative viability (nuclei count vs DMSO), 5 days (fraction); higher = more cells survive
# Condition notes: first compound 0.0002 µM

CC(=O)O[C@@]12CO[C@@H]1C[C@H](O)[C@@]1(C)C(=O)[C@H](O)C3=C(C)[C@@H](OC(=O)[C@H](O)[C@@H](NC(=O)OC(C)(C)C)c4ccccc4)C[C@@](O)([C@@H](OC(=O)c4ccccc4)[C@H]21)C3(C)C [Docetaxel] + O=C(c1cc(Cc2n[nH]c(=O)c3ccccc23)ccc1F)N1CCN(C(=O)C2CC2)CC1 [Olaparib] (partner 8 µM): 0.613

Take each entry in turn and give its relative viability.
1. CC(=O)O[C@@]12CO[C@@H]1C[C@H](O)[C@@]1(C)C(=O)[C@H](O)C3=C(C)[C@@H](OC(=O)[C@H](O)[C@@H](NC(=O)OC(C)(C)C)c4ccccc4)C[C@@](O)([C@@H](OC(=O)c4ccccc4)[C@H]21)C3(C)C [Docetaxel] + O=C(CCCCCCC(=O)Nc1ccccc1)NO [Vorinostat] (partner 1 µM)
2. CC(=O)O[C@@]12CO[C@@H]1C[C@H](O)[C@@]1(C)C(=O)[C@H](O)C3=C(C)[C@@H](OC(=O)[C@H](O)[C@@H](NC(=O)OC(C)(C)C)c4ccccc4)C[C@@](O)([C@@H](OC(=O)c4ccccc4)[C@H]21)C3(C)C [Docetaxel] + CC(=O)Nc1cccc(-n2c(=O)n(C3CC3)c(=O)c3c(Nc4ccc(I)cc4F)n(C)c(=O)c(C)c32)c1 [Trametinib] (partner 0.02 µM)
3. CC(=O)O[C@@]12CO[C@@H]1C[C@H](O)[C@@]1(C)C(=O)[C@H](O)C3=C(C)[C@@H](OC(=O)[C@H](O)[C@@H](NC(=O)OC(C)(C)C)c4ccccc4)C[C@@](O)([C@@H](OC(=O)c4ccccc4)[C@H]21)C3(C)C [Docetaxel] + COc1cc2c(Oc3ccc(NC(=O)C4(C(=O)Nc5ccc(F)cc5)CC4)cc3F)ccnc2cc1OCCCN1CCOCC1 [Foretinib] (partner 0.25 µM)
4. CC(=O)O[C@@]12CO[C@@H]1C[C@H](O)[C@@]1(C)C(=O)[C@H](O)C3=C(C)[C@@H](OC(=O)[C@H](O)[C@@H](NC(=O)OC(C)(C)C)c4ccccc4)C[C@@](O)([C@@H](OC(=O)c4ccccc4)[C@H]21)C3(C)C [Docetaxel] + COc1cccc2cc(-c3nc([C@H]4CC[C@H](C(=O)O)CC4)n4ncnc(N)c34)[nH]c12 [OSI-027] (partner 0.5 µM)

Response:
1: 0.726; 2: 0.243; 3: 0.806; 4: 0.435

Input CC(=O)O[C@@]12CO[C@@H]1C[C@H](O)[C@@]1(C)C(=O)[C@H](O)C3=C(C)[C@@H](OC(=O)[C@H](O)[C@@H](NC(=O)OC(C)(C)C)c4ccccc4)C[C@@](O)([C@@H](OC(=O)c4ccccc4)[C@H]21)C3(C)C [Docetaxel] + Cc1nc(Nc2ncc(C(=O)Nc3c(C)cccc3Cl)s2)cc(N2CCN(CCO)CC2)n1 [Dasatinib] (partner 0.075 µM) . Output relative viability: 0.336

###

# Tested on: NCI-H1734
# Assay method text: relative viability (nuclei count vs DMSO), 5 days (fraction); higher = more cells survive
# Condition notes: first compound 4 µM
Would you mind telling me the reported relative viability of each entry?
Give bare numbers.

Solved cases below.
Cc1sc2c(c1C)C(c1ccc(Cl)cc1)=N[C@@H](CC(=O)OC(C)(C)C)c1nnc(C)n1-2 [JQ1] + CS(=O)(=O)N1CCN(Cc2cc3nc(-c4cccc5[nH]ncc45)nc(N4CCOCC4)c3s2)CC1 [Pictilisib] (partner 1 µM): 0.327
Cc1sc2c(c1C)C(c1ccc(Cl)cc1)=N[C@@H](CC(=O)OC(C)(C)C)c1nnc(C)n1-2 [JQ1] + Nc1ncn([C@H]2C[C@H](O)[C@@H](CO)O2)c(=O)n1 [Decitabine] (partner 2 µM): 0.364

Take each entry in turn and give its relative viability.
1. Cc1sc2c(c1C)C(c1ccc(Cl)cc1)=N[C@@H](CC(=O)OC(C)(C)C)c1nnc(C)n1-2 [JQ1] + Nc1nc2[nH]cc(CCc3ccc(C(=O)N[C@@H](CCC(=O)O)C(=O)O)cc3)c2c(=O)[nH]1 [Pemetrexed] (partner 0.2 µM)
2. Cc1sc2c(c1C)C(c1ccc(Cl)cc1)=N[C@@H](CC(=O)OC(C)(C)C)c1nnc(C)n1-2 [JQ1] + COc1cc2c(Oc3ccc(NC(=O)C4(C(=O)Nc5ccc(F)cc5)CC4)cc3F)ccnc2cc1OCCCN1CCOCC1 [Foretinib] (partner 0.25 µM)

Response:
1. 0.283
2. 0.531

###

Would you mind telling me the reported relative viability of each entry?
# Tested on: NCI-H23
# Assay method text: relative viability (nuclei count vs DMSO), 5 days (fraction); higher = more cells survive
# Condition notes: first compound 5 µM
One number for each entry.

Solved cases below.
O=C(O)CCCCC(CCSCc1ccccc1)SCc1ccccc1 (stereo not given) [CPI-613] + CCNC(=O)c1noc(-c2cc(C(C)C)c(O)cc2O)c1-c1ccc(CN2CCOCC2)cc1 [Luminespib] (partner 0.01 µM): 0.224
O=C(O)CCCCC(CCSCc1ccccc1)SCc1ccccc1 (stereo not given) [CPI-613] + CC(C)C[C@H](NC(=O)[C@H](Cc1ccccc1)NC(=O)c1cnccn1)B(O)O [Bortezomib] (partner 0.002 µM): 0.958

Take each entry in turn and give its relative viability.
1. O=C(O)CCCCC(CCSCc1ccccc1)SCc1ccccc1 (stereo not given) [CPI-613] + O=C(c1cc(Cc2n[nH]c(=O)c3ccccc23)ccc1F)N1CCN(C(=O)C2CC2)CC1 [Olaparib] (partner 8 µM)
2. O=C(O)CCCCC(CCSCc1ccccc1)SCc1ccccc1 (stereo not given) [CPI-613] + NC(=O)Nc1cc(-c2cccc(F)c2)sc1C(=O)N[C@H]1CCCNC1 [AZD7762] (partner 0.2 µM)
3. O=C(O)CCCCC(CCSCc1ccccc1)SCc1ccccc1 (stereo not given) [CPI-613] + Cc1cc(Nc2cc(N3CCN(C)CC3)nc(Sc3ccc(NC(=O)C4CC4)cc3)n2)n[nH]1 [Tozasertib] (partner 0.1 µM)

Response:
1: 0.33; 2: 0.212; 3: 0.348

###

Would you mind telling me the reported relative viability of each entry?
# Tested on: NCI-H650
# Assay method text: relative viability (nuclei count vs DMSO), 5 days (fraction); higher = more cells survive
# Condition notes: first compound 0.08 µM
Give bare numbers.

Solved cases below.
Cc1cnc(-c2cnc(NCCNc3ccc(C#N)cn3)nc2-c2ccc(Cl)cc2Cl)[nH]1 + COc1cccc2cc(-c3nc([C@H]4CC[C@H](C(=O)O)CC4)n4ncnc(N)c34)[nH]c12 [OSI-027] (partner 0.5 µM): 0.571
O=c1[nH]c2ccccc2n1C1CCN(CCCC(c2ccc(F)cc2)c2ccc(F)cc2)CC1 [Pimozide] + O=C(CCCCCCC(=O)Nc1ccccc1)NO [Vorinostat] (partner 1 µM): 0.455

Now, please, on to the next molecule.
Input Cc1cnc(-c2cnc(NCCNc3ccc(C#N)cn3)nc2-c2ccc(Cl)cc2Cl)[nH]1 + C[C@@H](Oc1cc(-c2cnn(C3CCNCC3)c2)cnc1N)c1c(Cl)ccc(F)c1Cl [Crizotinib] (partner 1 µM) . Output relative viability: 0.786

###

# Tested on: NCI-H1666
# Assay method text: relative viability (nuclei count vs DMSO), 5 days (fraction); higher = more cells survive
# Condition notes: first compound 15.81 µM
Exam item: assign condition met to entries whose relative viability is below 0.9 and condition not met to entries at or above 0.9. Note that a value of exactly 0.9 receives condition not met.

Illustrative cases are given below, each with its answer.
O=C(O)CCCCC(CCSCc1ccccc1)SCc1ccccc1 (stereo not given) [CPI-613] + O=C(c1cc(Cc2n[nH]c(=O)c3ccccc23)ccc1F)N1CCN(C(=O)C2CC2)CC1 [Olaparib] (partner 8 µM): condition met
O=C(O)CCCCC(CCSCc1ccccc1)SCc1ccccc1 (stereo not given) [CPI-613] + COc1cccc2cc(-c3nc([C@H]4CC[C@H](C(=O)O)CC4)n4ncnc(N)c34)[nH]c12 [OSI-027] (partner 0.5 µM): condition met
O=C(O)CCCCC(CCSCc1ccccc1)SCc1ccccc1 (stereo not given) [CPI-613] + CCNC(=O)c1noc(-c2cc(C(C)C)c(O)cc2O)c1-c1ccc(CN2CCOCC2)cc1 [Luminespib] (partner 0.01 µM): condition not met

Request: # strict comparison: is reported relative viability < 0.9? input = O=C(O)CCCCC(CCSCc1ccccc1)SCc1ccccc1 (stereo not given) [CPI-613] + Cc1nc(Nc2ncc(C(=O)Nc3c(C)cccc3Cl)s2)cc(N2CCN(CCO)CC2)n1 [Dasatinib] (partner 0.075 µM)
Response: condition met

Request: # strict comparison: is reported relative viability < 0.9? input = O=C(O)CCCCC(CCSCc1ccccc1)SCc1ccccc1 (stereo not given) [CPI-613] + CS(=O)(=O)N1CCN(Cc2cc3nc(-c4cccc5[nH]ncc45)nc(N4CCOCC4)c3s2)CC1 [Pictilisib] (partner 1 µM)
Response: condition met
